# Test system: EKVX
# ASSAY SUMMARY: NCI tumour cell line growth inhibition, 48 h
Active and inactive are the calls of the source. Cut-off read from the data, not from the text of the source: active = GI50 up to about 1.1 µM and inactive = higher.
Give one outcome, nothing more. List: 1 = active, 0 = inactive

Input: What call does the record list for C#CCN(C)C(=O)N(CC#C)N=O ?
Output: 0

Input: What call does the record list for Cc1oc(N)c(S(=O)(=O)/C(C#N)=C/c2ccccc2[N+](=O)[O-])c1C ?
Output: 0

Input: What call does the record list for c1ccc(C2=Nc3nc4ccccc4n3C(c3ccccc3)C2)cc1 (stereo unspecified) ?
Output: 0

Input: What call does the record list for COc1c(-c2ccc(F)cc2)oc2c(CC(=O)O)cccc2c1=O ?
Output: 0

Input: What call does the record list for C1CN2CCNCCN(CCN1)CC2 ?
Output: 0

Input: What call does the record list for C/C=N\n1c(C)c(C#N)c(C#N)c1N ?
Output: 0

Input: What call does the record list for Oc1ccc(O)c(-n2cccn2)c1 ?
Output: 0

Input: What call does the record list for O=C(Cc1nc2ncccc2[nH]c1=O)c1c[nH]c2ccccc12 ?
Output: 0

Input: What call does the record list for CCC(C)(C)NC1=C(NC(C)=O)C(=O)c2ccccc2C1=O ?
Output: 0

Input: What call does the record list for CN(C)CCNC(=O)c1cccc2c1nc(-c1ccccc1)c1ccccc12 ?
Output: 0

Input: What call does the record list for O=C(O)C(CS)NCc1c2ccccc2[n+]([O-])c2ccccc12 (stereo unspecified) ?
Output: 0

Input: What call does the record list for [N-]=[N+]=NC(c1cn(C2CC(O)C(CO)O2)c(=O)[nH]c1=O)C(Cl)I (stereo unspecified) ?
Output: 0

Input: What call does the record list for O=c1cnn(C/C=C/CP(=O)(O)O)c(=O)[nH]1 ?
Output: 0

Input: What call does the record list for O=C(Nc1ccc(I)cc1C(=O)NCCO)c1cccs1 ?
Output: 0

Input: What call does the record list for CCn1c2ccccc2c2nnc(NCCCO)nc21 ?
Output: 0

Input: What call does the record list for COc1cc(O)c2c(O)c3c(c4c2c1[C@]1(C4)C(C)=CCCC1(C)C)[C@H](O)[C@@]1(O)CC(O)=C(C(N)=O)C(=O)[C@@]1(O)C3=O ?
Output: 1

Input: What call does the record list for N=C(N)/N=C(\N)Nc1ccc(C(=O)O)cc1 ?
Output: 0

Input: What call does the record list for C[C@]12CC[C@H](O)CC1=CC[C@@H]1[C@@H]2CC[C@]2(C)C(=N/N)/C(=N\O)C[C@@H]12 ?
Output: 0

Input: What call does the record list for Sc1nnc(COc2ccc(Cl)cc2)o1 ?
Output: 0

Input: What call does the record list for Cc1ccc(/N=N/c2c(O)ccc3cc(S(=O)(=O)O)ccc23)c(C)c1 ?
Output: 0

Input: What call does the record list for COc1ccc2[nH]c(C(=O)N3CC(CCl)c4c3cc(N)c3ccccc43)cc2c1 (stereo unspecified) ?
Output: 1

Input: What call does the record list for Cn1c(N)c(-c2c3ccccc3nc3ccccc23)c(=O)n(C)c1=O ?
Output: 0

Input: What call does the record list for O=C1CCc2cc([N+](=O)[O-])ccc2O1 ?
Output: 0

Input: What call does the record list for CC/C=C\C=C/C(=O)N/C=C/CCC ?
Output: 0

Input: What call does the record list for O=C1C(SCCO)=C(SCCO)C(=O)c2ccccc21 ?
Output: 0

Input: What call does the record list for O=C1CSC2(CC(/C=C/C=C/c3ccccc3)=NN2c2cccc(S(=O)(=O)O)c2)N1c1nc2ccccc2s1 (stereo unspecified) ?
Output: 0

Input: What call does the record list for COC(=O)N/N=C(\C)C(CN(C)C)C(c1ccccc1)c1c(O)c2ccccc2oc1=O (stereo unspecified) ?
Output: 0

Input: What call does the record list for COc1cc(C2c3cc4c(cc3OC(N3CCOCC3)C2C)OCO4)cc(OC)c1OC(C)=O (stereo unspecified) ?
Output: 0

Input: What call does the record list for c1ccc(-c2cccc(-c3ccccn3)n2)nc1 ?
Output: 1

Input: What call does the record list for O=C(c1c(F)c(F)c(F)c(F)c1F)N1CCN(C(=O)c2c(F)c(F)c(F)c(F)c2F)C1=S ?
Output: 0

Input: What call does the record list for CCC1(C)NC(c2cnccn2)=NN1c1ccc(Cl)cc1 (stereo unspecified) ?
Output: 0

Input: What call does the record list for CC(C)=CCC/C(C)=C/CC/C(C)=C/CCN(C)CCO ?
Output: 0

Input: What call does the record list for C=C([C@@]1(O)C[C@H]2[C@H](CCC2(OC)OC)[C@@H]2c3ccccc3O[C@@H]21)[Si](C)(C)C ?
Output: 0

Input: What call does the record list for CC(C)OC(=O)/C=C/C(=O)O/C=C/[N+](=O)[O-] ?
Output: 0

Input: What call does the record list for CCOc1ccc(NC(=O)C(=O)Nn2c(N)nnc2N)cc1 ?
Output: 0

Input: What call does the record list for O=C1C=Cc2c(I)sc(I)c21 ?
Output: 0
